The values you see were collected from ChEMBL document CHEMBL1144843.

- procedure-details: Bioavailability in Beagle dog at 3 umol/kg, po
- Assay type: ADME, organism-based, Canis lupus familiaris
- condition-info: in vivo
measured-attribute: bioavailability (%)

[
  {
    "smiles-input": "N#Cc1cc(CN2CCC2)cnc1-c1ccc(C(=O)Nc2ccccc2N)cc1",
    "observed-measurement": 13
  }
]

* * *

- procedure-details: Solubility at pH 7.4
- Assay type: physicochemical
- condition-info: buffer
measured-attribute: solubility

[
  {
    "smiles-input": "Cc1cc(CN2CCN(C(C)C)CC2)cnc1-c1ccc(C(=O)Nc2ccccc2N)cc1",
    "observed-measurement": "> 2620 µM"
  },
  {
    "smiles-input": "CC(C)N1CCN(Cc2cnc(-c3ccc(C(=O)Nc4ccccc4N)cc3)c(F)c2)CC1",
    "observed-measurement": "> 2160 µM"
  },
  {
    "smiles-input": "CC(C)N1CCN(Cc2cnc(-c3ccc(C(=O)Nc4ccccc4N)cc3)c(Cl)c2)CC1",
    "observed-measurement": "> 1490 µM"
  },
  {
    "smiles-input": "CCN1CCN(Cc2cnc(-c3ccc(C(=O)Nc4ccccc4N)cc3)c(C#N)c2)CC1",
    "observed-measurement": "> 1940 µM"
  },
  {
    "smiles-input": "CCN1CCN(Cc2cnc(-c3ccc(C(=O)Nc4ccccc4N)cc3)c(C)c2)CC1",
    "observed-measurement": "> 2350 µM"
  },
  {
    "smiles-input": "CCN1CCN(Cc2cnc(-c3ccc(C(=O)Nc4ccccc4N)cc3)c(F)c2)CC1",
    "observed-measurement": "> 2420 µM"
  }
]

* * *

- procedure-details: Lipophilicity, log D at pH 7.4
- Assay type: physicochemical
- condition-info: buffer
Quick reference for logD among some compounds

[
  {
    "smiles-input": "CCN1CCN(Cc2cnc(-c3ccc(C(=O)Nc4ccccc4N)cc3)c(C)c2)CC1",
    "logD": 1.2
  },
  {
    "smiles-input": "Nc1ccccc1NC(=O)c1ccc(-c2ncc(CN3CCC3)cc2F)cc1",
    "logD": 1.69
  },
  {
    "smiles-input": "CCN1CCN(Cc2cnc(-c3ccc(C(=O)Nc4ccccc4N)cc3)c(Cl)c2)CC1",
    "logD": 1.81
  },
  {
    "smiles-input": "N#Cc1cc(CN2CCC2)cnc1-c1ccc(C(=O)Nc2ccccc2N)cc1",
    "logD": 1.22
  }
]
